- Study system: IDO1 (Homo sapiens, UniProt P14902)
- Sequence (P14902 whole entry): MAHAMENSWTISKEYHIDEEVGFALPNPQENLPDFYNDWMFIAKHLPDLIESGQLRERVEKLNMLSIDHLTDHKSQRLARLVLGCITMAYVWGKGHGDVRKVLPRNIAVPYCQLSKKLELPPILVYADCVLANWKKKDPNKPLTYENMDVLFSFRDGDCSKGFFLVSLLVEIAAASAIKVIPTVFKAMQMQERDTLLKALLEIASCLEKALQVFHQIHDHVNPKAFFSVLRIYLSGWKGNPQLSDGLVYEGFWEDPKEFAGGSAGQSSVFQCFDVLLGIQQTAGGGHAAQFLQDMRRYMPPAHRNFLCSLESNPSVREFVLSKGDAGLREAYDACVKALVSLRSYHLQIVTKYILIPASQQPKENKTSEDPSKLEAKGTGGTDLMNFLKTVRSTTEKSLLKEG
- Assay summary: IDO1 Human Whole Blood Assay
- Type: cell-based
- Set-up: Human whole blood was drawn in sodium heparin coated tubes from healthy internal donors; from tissue; host or cells: human whole blood from healthy donors, stimulated with LPS and IFNγ
- Condition label: LPS and IFNγ stimulated
Mark YES only for IC50 values smaller than 90 nM; exact matches and larger values are NO.

The examples below pair each entry with its known result.
Cc1ncc(N2CCCc3nc(C(C)NC(=O)c4ccc(Cl)cc4)ccc32)s1 (centres unmarked)    NO
O=C(N1CCCc2cc(C3(C(=O)Nc4ccc(F)cc4)CCC3)ccc21)C1(F)CC1    NO
CC(NC(=O)c1ccc(F)cc1)c1ccc2c(n1)CCCN2C(=O)OCC(F)F (centres unmarked)    YES
Cc1ccnc(C(=O)N2CCCc3nc(C4(C(=O)Nc5ccc(Cl)cc5)COC4)ccc32)n1    YES
COCCOC(=O)N1CCCc2nc(C3(NC(=O)c4ccc(Cl)cc4)CCC3)ccc21    YES

Query: Regarding Cc1nccc(N2CCCc3nc(C4(C(=O)Nc5ccc(F)cc5)CC(F)C4)ccc32)n1 (centres unmarked) [Example 419, 2,2,2-trifluoroacetate] , kindly confirm whether its IC50 is beneath 90 nM.
Result: YES

Query: Please indicate whether the reported IC50 of "Cc1nccc(N2CCCc3nc(C4(C(=O)Nc5ccc(F)cc5)CC(F)(F)C4)ccc32)n1" is strictly below 90 nM.
Result: YES

Query: For this compound, is IC50 lower than 90 nM? CCC(COC)OC(=O)N1CCCc2nc(C(C)NC(=O)c3ccc(F)cc3)ccc21 (centres unmarked)
Result: YES

Query: Would you kindly verify if IC50 of "O=C(Nc1ccc(Cl)cc1)C1(c2ccc3c(n2)CCN3c2ccccn2)CCC1" is strictly less than 90 nM?
Result: NO

Query: Determine whether this compound shows IC50 lower than 90 nM (ties excluded): "O=C(C1CC1)N1CCc2nc(C3(C(=O)Nc4ccc(F)cc4)CCC3)ccc21"
Result: NO
